Tested on: HeLa
test_settings: bulk resorufin, single well, 28.5 h, 10 µM, Bulk resorufin fluorescence
measure_name: % viability (%)
// note: answer is a bare numeric in %

Param item = COc1nccc(NC(c2cnn(C)c2)[C@H]2C[C@H](O)C2)c1C#N (stereo partly shown) ; retrieve measured % viability.
91.1

Ok, now CC(CCN1CC2C[C@@H](O)CN2C[C@H]1C)c1ccccc1 (stereo partly shown)
89.2

Then this compound: `Cc1ccc(-c2csc3c(=O)[nH]c(N4CCC5(CC4)OCCO5)nc23)cc1`
92.2

Further, for `CC[C@@H](Cn1nc(-c2ccc(F)c(F)c2)ccc1=O)NC(=O)C1CC1` ?
89.3

----------
Consider the following compounds and their measured viability at 28.5 h, 10 µM readings.
protocol_notes: in vitro
test_settings: human, hela cells, % viability
# value in %; strip the unit string

# compound, measure_name, reading
rows = [
    ("Cc1ccc(C(C)C(=O)N2CCC(O)(Cn3ccnc3C)CC2)cc1 (stereo not shown) [CBK284660]", "viability at 28.5 h, 10 µM", 83.8),
    ("Clc1ccc(-c2cc(NC3CCCCC3)ncn2)cc1 [CBK090902]", "viability at 28.5 h, 10 µM", 101),
    ("Cc1cccc(-c2ccc(CC3(C(=O)NC(C)C)CCN(C(=O)C(C)(C)C)CC3)cc2)c1 [CBK285758]", "viability at 28.5 h, 10 µM", 96.2),
    ("CCN1CCN(c2ccc(-c3ccc(OCC4CCN(C(=O)OC(C)(C)C)CC4)cn3)cn2)CC1 [CBK174505]", "viability at 28.5 h, 10 µM", 109),
    ("Cc1c(S(=O)(=O)Nc2ccc(-c3ccc(F)cc3)cc2)cnn1C [CBK281418]", "viability at 28.5 h, 10 µM", 114),
]

For the compound shown here, COc1ccc(CC(=O)Nc2ccc(S(=O)(=O)NC(C)C)cc2)cc1 [CBK267833] , give the reported viability at 28.5 h, 10 µM.
93.2

Next entry: CNC(=O)c1ccc(NC(=O)N2CCCCC2c2ccnn2C)cc1 (stereo not shown) [CBK305521]
112

// repeat for O=C(N[C@H]1CCN2C(=O)[C@H]3CCCN3C(=O)[C@@H]2C1)c1cccs1 [CBK289538] and report
106

Further, for CN(C)/C=N/c1nc2c(nc(Br)n2C2CC(O)C(CO)O2)c(=O)[nH]1 (stereo not shown) [CBK201319] ?
84.7

Here is the next compound: CN(C)c1ccc(CN2CC[C@H](c3nc4cccc(C(N)=O)c4[nH]3)C2)cc1 [CBK289414]
105

Next compound: N#Cc1c(N)nc2c(c1-c1ccc(Cl)cc1)CCCCCCCCCC2 [CBK262322]
90.6

Ok, now O=C(NC1CCCCC1)NC1CCN(Cc2nnnn2Cc2ccco2)CC1 [CBK085007]
100

Can you handle O=C(O)/C=C/c1ccccc1OCC(=O)NC1CCCCC1 [CBK286900] next?
99.8

How about this compound: COc1cc(/C=N/NC(=O)c2nonc2N)ccc1OC(=O)c1cc(F)c(F)cc1Cl [CBK262380]
90.1

What about Cc1nn2c(CN(C(=O)c3ccccc3)c3ccccc3)nnc2c2ccccc12 [CBK268084] ?
87.7

Here is the next compound: COC(=O)/N=C1/Nc2ccccc2CN1CC(N)=O [CBK007160]
91.9

Try OCCN1CCN(c2cc(N3CCN(c4ccccn4)CC3)n3nccc3n2)CC1 [CBK037129] next.
100

Now consider CCCCSc1sc(C(=O)O)c(-c2ccc(Cl)cc2)c1C#N [CBK122551] .
94.1

Same read-out for CC1(NC(=O)CC(c2ccncc2)c2c[nH]c3ccccc23)CCC1 (stereo not shown) [CBK281610] ?
88.8

Would you mind doing O=C(NCCc1cccs1)Nc1ccc(F)c(F)c1F [CBK044543] as well?
96.1

Field entry: COc1ccc(-c2nc3ccccn3c2CN2CCC(C(=O)O)CC2)cc1 [CBK287052]
88.4

Repeat for the following compound: O=C(NCCN1CCC(O)(c2cccc(F)c2)CC1)c1cccs1 [CBK282450]
112

Follow-up entry: CC1CC(C)CN(C(=O)Cn2c(=O)n(C)c3ncccc32)C1 (stereo not shown) [CBK283794]
93.8

Now the same for O=C(CCS(=O)(=O)c1ccccc1)Nc1cncc(OC2CCNCC2)n1 [CBK028438T]
94.1

Here is the next compound: Cc1n[nH]c(NCc2cccc(Cl)c2Cl)n1 [CBK288037]
107

Follow-up entry: CC(C)C(=O)Nc1ccc(-c2ccsc2)c2ccccc12 [CBK083758]
92.7

Can you check Cc1cccc(-c2nc(CN3CCOCC3)cs2)c1 [CBK270299] next?
103

Try the compound NS(=O)(=O)c1ccc(CCNC2CC(=O)N(CCc3ccccc3)C2=O)cc1 (stereo not shown) [CBK263502]
93.4

// query: O=C(c1ccccc1)N1CCN(Cc2cc(=O)n3ccsc3n2)CC1 [CBK306095]
94.4
